From: ChEMBL document CHEMBL1833896

Experiment: Lipophilicity, log D of the compound
Type: physicochemical
Details: chromatographic hydrophobicity index (CHI) method
Lab note: anything with logD at or over 3 counts as met; the rest go in not met.

Record `CC(C)CN(CC(=O)Nc1cc(F)cc(F)c1)C(=O)c1ccc(-c2ccccn2)cc1` ; criterion: logD no lower than 3. Met?
met

Record `CN(C)CCOc1ccc(C(=O)N(CC(=O)Nc2cc(F)cc(F)c2)C2CCCCC2)cc1` ; criterion: logD no lower than 3. Met?
not met

Record `COc1ccc(C(=O)N(Cc2c(C)noc2-c2ccccc2)C2CCCCC2)cc1` ; criterion: logD no lower than 3. Met?
met

Record `O=C(CN(C(=O)c1ccc(N2CCCC2)nc1)C1CCCCC1)Nc1cc(F)cc(F)c1` ; criterion: logD no lower than 3. Met?
met

Record `O=C(CN(C(=O)c1cccnc1)C1CCCCC1)Nc1cc(F)cc(F)c1` ; criterion: logD no lower than 3. Met?
not met

Record `COc1ccc(C(=O)N(Cc2c[nH]c(-c3ccccc3)n2)C2CCCCC2)cc1` ; criterion: logD no lower than 3. Met?
not met

Record CCC(C)N(CC(=O)Nc1cc(F)cc(F)c1)C(=O)c1ccc(-c2ccccn2)cc1 (stereo not drawn) ; criterion: logD no lower than 3. Met?
met

Record `COc1ccc(C(=O)N(CC(=O)Nc2cc(F)cc(F)c2)C2CCCCC2)cc1` ; criterion: logD no lower than 3. Met?
met

Record `COc1ccc(C(=O)N(Cc2csc(-c3ccccc3)n2)C2CCCCC2)cc1` ; criterion: logD no lower than 3. Met?
met

Record `COc1ccc(C(=O)N(Cc2[nH]ncc2-c2ccccc2)C2CCCCC2)cc1` ; criterion: logD no lower than 3. Met?
met

Record `COc1ccc(C(=O)N(Cc2cn(-c3ccccc3)nn2)C2CCCCC2)cc1` ; criterion: logD no lower than 3. Met?
met

Record CCC(COC)N(CC(=O)Nc1cc(F)cc(F)c1)C(=O)c1ccc(-c2ccccn2)cc1 (stereo not drawn) ; criterion: logD no lower than 3. Met?
met

Record `COc1ccc(C(=O)N(Cc2ccc(-c3ccc(Cl)cc3)o2)C2CCCCC2)cc1` ; criterion: logD no lower than 3. Met?
met

Record `O=C(CN(CC1CC1)C(=O)c1ccc(-c2ccccn2)cc1)Nc1cc(F)cc(F)c1` ; criterion: logD no lower than 3. Met?
met

Record `O=C(CN(CC1CCC1)C(=O)c1ccc(-c2ccccn2)cc1)Nc1cc(F)cc(F)c1` ; criterion: logD no lower than 3. Met?
met

Record `O=C(CN(C(=O)c1ccc(-c2ccccn2)cc1)C1CCCC1)Nc1cc(F)cc(F)c1` ; criterion: logD no lower than 3. Met?
met

Record O=C(CN(C(=O)c1ccc(-c2ccccn2)cc1)C1CCCOC1)Nc1cc(F)cc(F)c1 (racemic) ; criterion: logD no lower than 3. Met?
not met

Record `O=C(CN(C(=O)c1ccc(-n2ccnc2)cc1)C1CCCCC1)Nc1cc(F)cc(F)c1` ; criterion: logD no lower than 3. Met?
not met

Record `O=C(CN(C(=O)c1ccc(-c2ccccn2)cc1)C1CCOCC1)Nc1cc(F)cc(F)c1` ; criterion: logD no lower than 3. Met?
not met

Record `O=C(CN(C(=O)c1ccc(N2CCCC2)cc1)C1CCCCC1)Nc1cc(F)cc(F)c1` ; criterion: logD no lower than 3. Met?
met

Record `O=C(CN(C(=O)c1ccc(-c2ccccn2)cc1)C1CCCCC1)Nc1cc(F)cc(F)c1` ; criterion: logD no lower than 3. Met?
met

Record `COc1ccc(C(=O)N(Cc2cc(-c3ccccc3)on2)C2CCCCC2)cc1` ; criterion: logD no lower than 3. Met?
met

Record `CN1CCC(C(=O)N(CC(=O)Nc2cc(F)cc(F)c2)C2CCCCC2)CC1` ; criterion: logD no lower than 3. Met?
not met

Record O=C(CN(C(=O)c1ccc(-c2ccccn2)cc1)C1CCOC1)Nc1cc(F)cc(F)c1 (stereo not drawn) ; criterion: logD no lower than 3. Met?
not met
